Counter-ions that a name gives are not always drawn.
Test readout: melting point

# example entries with known answers
| Compound | Result |
| --- | --- |
| CN1CCCCCOc2cc3c(ncnc3cc2OCCCNC(=O)OC(C)(C)C)Nc2c(ccc3c2OCO3)C1 | 210 to 213 °C |
| Brc1cc2c(c3c1OCO3)Nc1ncnc3cc(OCCCN4CCCC4)c(cc13)OCCCCCNC2 (as salt: HCl) | 224 °C |
| CN1CCCCCOc2cc3c(ncnc3cc2OCCCNCCO)Nc2c(cc(Br)c3c2OCO3)C1 | 241 °C |

Quick one: melting point for COc1cc2c3c(ncnc3c1)Nc1c(ccc3c1OCO3)CNCCCCCO2 ?
250 °C

Quick one: melting point for CN1CCN(CCCOc2cc3ncnc4c3cc2OCCCCCNCc2cc(Br)c3c(c2N4)OCO3)CC1 (as salt: HCl) ?
244 °C
